Endpoint: pIC50. System: XOD (xanthine oxidase) (Homo sapiens). Items follow.
Sequence (P47989 whole entry, species assumed): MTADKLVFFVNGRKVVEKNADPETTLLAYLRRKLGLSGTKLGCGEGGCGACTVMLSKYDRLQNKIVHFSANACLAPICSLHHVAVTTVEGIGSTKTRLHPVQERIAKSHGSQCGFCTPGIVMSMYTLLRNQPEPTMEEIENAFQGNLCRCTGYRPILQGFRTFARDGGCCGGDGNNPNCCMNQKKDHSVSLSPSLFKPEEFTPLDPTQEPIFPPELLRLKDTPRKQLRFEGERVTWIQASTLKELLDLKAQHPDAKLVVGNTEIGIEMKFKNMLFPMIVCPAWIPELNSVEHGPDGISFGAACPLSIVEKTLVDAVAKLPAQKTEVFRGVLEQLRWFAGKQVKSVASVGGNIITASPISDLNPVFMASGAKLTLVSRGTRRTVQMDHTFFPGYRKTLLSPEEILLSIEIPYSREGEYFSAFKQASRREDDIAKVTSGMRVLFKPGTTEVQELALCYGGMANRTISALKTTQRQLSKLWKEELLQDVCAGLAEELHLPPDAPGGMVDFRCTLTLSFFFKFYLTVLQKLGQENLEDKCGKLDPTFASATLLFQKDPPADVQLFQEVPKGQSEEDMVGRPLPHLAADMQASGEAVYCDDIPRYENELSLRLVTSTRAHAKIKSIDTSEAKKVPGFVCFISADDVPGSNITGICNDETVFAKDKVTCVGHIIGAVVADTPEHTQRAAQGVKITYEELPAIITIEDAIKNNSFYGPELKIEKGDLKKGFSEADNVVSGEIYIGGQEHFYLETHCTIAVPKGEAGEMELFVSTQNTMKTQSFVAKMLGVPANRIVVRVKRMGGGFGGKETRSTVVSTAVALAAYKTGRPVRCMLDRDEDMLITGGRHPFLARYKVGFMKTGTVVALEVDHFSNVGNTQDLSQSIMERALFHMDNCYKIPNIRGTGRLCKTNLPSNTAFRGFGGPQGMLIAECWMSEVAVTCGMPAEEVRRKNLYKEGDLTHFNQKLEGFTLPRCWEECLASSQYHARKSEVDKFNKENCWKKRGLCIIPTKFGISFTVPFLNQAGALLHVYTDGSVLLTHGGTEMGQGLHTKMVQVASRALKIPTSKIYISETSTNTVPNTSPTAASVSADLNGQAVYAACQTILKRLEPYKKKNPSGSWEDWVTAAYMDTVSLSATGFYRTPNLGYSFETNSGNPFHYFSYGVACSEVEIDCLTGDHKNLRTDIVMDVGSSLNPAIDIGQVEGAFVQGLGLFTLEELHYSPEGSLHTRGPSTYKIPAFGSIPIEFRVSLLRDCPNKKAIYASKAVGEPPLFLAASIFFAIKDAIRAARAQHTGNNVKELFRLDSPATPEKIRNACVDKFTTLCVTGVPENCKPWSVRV
Reminder that pIC50 means the negative base-10 logarithm of the concentration expressed in mol/L.

O=C(O)c1nc2ccccc2cc1O [Compound 13, 3-Hydroxyquinoline-2-carboxylic acid] = 3.01

Report pIC50 for CCOC(=O)c1cc(O)c2ccccc2n1 [Compound 7, Ethyl 4-hydroxyquinoline-2-carboxylate] tested on XOD (xanthine oxidase) (Homo sapiens). 2.25

Report pIC50 for O=C(O)c1cc(O)nc2ccccc12 [Compound 11, 2-Hydroxyquinoline-4-carboxylic acid] tested on XOD (xanthine oxidase) (Homo sapiens). 2.79

Report pIC50 for O=C(O)c1cnc2ccc(O)cc2c1 [Compound 5, 6-Hydroxyquinoline-3-carboxylic acid] tested on XOD (xanthine oxidase) (Homo sapiens). 3.30
